target: UniProtKB Q9GZU1; assay: Fluorescent TRPML1 assay (Fluo4-AM calcium fluorescence in doxycycline-induced HEK-293 Trex cells); type: cell-based; settings: fluorescent calcium assay
Below, each entry is listed with its recorded EC50.

// worked examples, EC50 included
[[record]]
molecule = "C[C@H]1CN(c2ncnc3c2c(N2CCCC2)cn3-c2cccc(Cl)c2)CCN1C(=O)OC(C)(C)C [Compound 194]"
recorded_measurement = "100 to 500 nM"

[[record]]
molecule = "CC(C)OC(=O)N1C[C@H](C)N(c2ncnc3c2c(-c2ccccc2F)cn3-c2cnn(C)c2)C[C@H]1C [Compound 252]"
recorded_measurement = "100 to 500 nM"

[[record]]
molecule = "C[C@H]1CN(C(=O)OC(C)(C)C)CCN1c1ncnc2c1c(N1CCC[C@H]1CO)cn2-c1cccc(Cl)c1 [Compound 298]"
recorded_measurement = "500 to 2000 nM"


Proceed to the following item.
q: Need EC50 of C[C@@H]1CN(c2nccc3c2c(C2CC2)cn3-c2cc(F)cc(F)c2)CCN1C(=O)OC(C)(C)C [Compound 418] , thanks.
a: < 100 nM

----------
target: TRPML2 (Homo sapiens); construct: expressed in transfected cells; test: Fluorescent TRPML2 assay (performed as for TRPML1, substituting the TRPML2 subtype); type: cell-based; conditions: fluorescent calcium assay
measured-parameter: EC50

// worked examples, EC50 included
[[record]]
molecule = "CC(C)(C)OC(=O)N1CCN(c2ncnc3c2c(C2CC2)cn3-c2cc(C#N)ccn2)[C@@H]2C[C@@H]21 (single isomer, unassigned) [Compound 408]"
experimental_system = "TRPML2 (Homo sapiens)"
measured_parameter = "EC50"
recorded_measurement = "100 to 500 nM"

[[record]]
molecule = "C[C@@H]1CN(C(=O)OC(C)(C)C)CCN1c1ncnc2c1c(C1CCCC1)cn2-c1cccc(Cl)c1 [Compound 157]"
experimental_system = "TRPML2 (Homo sapiens)"
measured_parameter = "EC50"
recorded_measurement = "100 to 500 nM"

[[record]]
molecule = "C[C@H]1CN(C(=O)OC(C)(C)C)CCN1c1ncnc2c1c(N1CCOCC1)cn2C1CCCCC1 [Compound 344]"
experimental_system = "TRPML2 (Homo sapiens)"
measured_parameter = "EC50"
recorded_measurement = "> 2000 nM"

[[record]]
molecule = "Cc1cn(-c2cc(C#N)ccn2)c2ncnc(N3C[C@@H](C)N(C(=O)OC(C)(C)C)C[C@@H]3C)c12 [Compound 477]"
experimental_system = "TRPML2 (Homo sapiens)"
measured_parameter = "EC50"
recorded_measurement = "< 100 nM"


q: Need EC50 of CC1CN(C(=O)OC(C)(C)C)CCN1c1ncnc2c1c(C1CCOCC1)cn2-c1cccc(Cl)c1 (stereo not shown) [Compound 466] , thanks.
a: 500 to 2000 nM

q: Also check C[C@H]1CN(C(=O)OC(C)(C)C)CCN1c1ncnc2c1c(C1CC1)cn2-c1cncc(C#N)c1 [Compound 259]
a: 500 to 2000 nM

q: Also check C[C@H]1CN(C(=O)OC(C)(C)C)CCN1c1ncnc2c1c(C1CC1)cn2-c1ccc(F)c(F)c1 [Compound 219]
a: 100 to 500 nM

----------
molecular target: TRPML2 (Homo sapiens, UniProt Q8IZK6); construct: expressed in transfected cells; assay: Fluorescent TRPML2 assay (performed as for TRPML1, substituting the TRPML2 subtype); type: cell-based; conditions: fluorescent calcium assay
measured-parameter: EC50

q: Need EC50 of C[C@H]1CN(C(=O)OC(C)(C)C)CCN1c1ncnc2c1c(C1CC1)cn2-c1cccc(OC(F)(F)F)c1 , thanks.
a: 100 to 500 nM

q: Also check C[C@@H]1CN(c2cn(-c3cc(C#N)ccn3)c3ncnc(N4CCN(C(=O)OC(C)(C)C)C[C@@H]4C)c23)CCO1
a: 100 to 500 nM

q: Also check C[C@@H]1CN(C(=O)OC(C)(C)C)CCN1c1ncnc2c1c(C1CC1)cn2-c1cc(F)cc(F)c1
a: 500 to 2000 nM

q: Also check C[C@@H]1CN(C(=O)OC(C)(C)C)CCN1c1ncnc2c1c(C1=CCOCC1)cn2-c1cccc(F)c1
a: 500 to 2000 nM

q: Also check C[C@H]1CN(C(=O)OC(C)(C)C)CCN1c1ncnc2c1c(C1CC1)cn2-c1cccc(F)c1F
a: 500 to 2000 nM

q: Also check C[C@H]1CN(C(=O)OC(C)(C)C)CCN1c1ncnc2c1c(C1CC1)cn2C1CCCC1
a: > 2000 nM

q: Also check CCN(CC)c1cn(-c2cccc(Cl)c2)c2ncnc(N3CCN(C(=O)OC(C)(C)C)C[C@@H]3C)c12
a: 100 to 500 nM

----------
molecular target: TRPML3 (Homo sapiens, UniProt Q8TDD5); construct: expressed in transfected cells; assay: Fluorescent TRPML3 assay (performed as for TRPML1, substituting the TRPML3 subtype); assay type: cell-based; details: fluorescent calcium assay
Sequence (Q8TDD5 whole entry): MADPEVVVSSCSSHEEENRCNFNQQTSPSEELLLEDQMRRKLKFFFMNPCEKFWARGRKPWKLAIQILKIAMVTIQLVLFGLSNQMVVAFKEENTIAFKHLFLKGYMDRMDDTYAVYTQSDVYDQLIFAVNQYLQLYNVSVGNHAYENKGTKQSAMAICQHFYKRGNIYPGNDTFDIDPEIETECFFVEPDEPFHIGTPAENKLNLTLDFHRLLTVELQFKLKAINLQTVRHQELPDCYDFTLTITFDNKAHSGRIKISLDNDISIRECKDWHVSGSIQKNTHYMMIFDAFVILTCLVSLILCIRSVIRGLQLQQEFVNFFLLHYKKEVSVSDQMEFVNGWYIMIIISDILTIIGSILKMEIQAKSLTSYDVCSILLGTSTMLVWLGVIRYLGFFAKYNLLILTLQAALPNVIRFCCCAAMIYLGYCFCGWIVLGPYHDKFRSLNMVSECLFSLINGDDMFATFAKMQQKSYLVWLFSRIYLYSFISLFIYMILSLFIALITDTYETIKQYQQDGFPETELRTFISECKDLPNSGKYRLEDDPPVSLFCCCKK
pEC50: −log10 of the molar value.
Below, each entry is listed with its recorded pEC50.

// worked examples, pEC50 included
[[record]]
molecule = "CCOC(=O)N1C[C@H](C)N(c2ncnc3c2c(-c2ccccn2)cn3-c2cccc(Cl)c2)C[C@H]1C"
recorded_measurement = "5.70 to 6.30"

[[record]]
molecule = "C[C@H]1CN(C(=O)OC(C)(C)C)CCN1c1ncnc2c1c(C1CC1)cn2-c1cc(C#N)n(C)c1"
recorded_measurement = "> 7.00"


q: Need pEC50 of C[C@H]1CN(C(=O)OC(C)(C)C)CCN1c1ncnc2c1c(C1CC1(F)F)cn2-c1cccc(C#N)c1 (stereo partly shown) , thanks.
a: > 7.00

q: Also check C[C@H]1CN(C(=O)OC(C)(C)C)CCN1c1ncnc2c1c(-c1nccnc1F)cn2-c1cccc(Cl)c1
a: > 7.00

----------
Below, each entry is listed with its recorded EC50.
target: TRPML1 (Homo sapiens); assay: Fluorescent TRPML1 assay (Fluo4-AM calcium fluorescence in doxycycline-induced HEK-293 Trex cells); type: cell-based; conditions: fluorescent calcium assay
Sequence (Q9GZU1 whole entry L15A/L16A/L577A/L578A, form open): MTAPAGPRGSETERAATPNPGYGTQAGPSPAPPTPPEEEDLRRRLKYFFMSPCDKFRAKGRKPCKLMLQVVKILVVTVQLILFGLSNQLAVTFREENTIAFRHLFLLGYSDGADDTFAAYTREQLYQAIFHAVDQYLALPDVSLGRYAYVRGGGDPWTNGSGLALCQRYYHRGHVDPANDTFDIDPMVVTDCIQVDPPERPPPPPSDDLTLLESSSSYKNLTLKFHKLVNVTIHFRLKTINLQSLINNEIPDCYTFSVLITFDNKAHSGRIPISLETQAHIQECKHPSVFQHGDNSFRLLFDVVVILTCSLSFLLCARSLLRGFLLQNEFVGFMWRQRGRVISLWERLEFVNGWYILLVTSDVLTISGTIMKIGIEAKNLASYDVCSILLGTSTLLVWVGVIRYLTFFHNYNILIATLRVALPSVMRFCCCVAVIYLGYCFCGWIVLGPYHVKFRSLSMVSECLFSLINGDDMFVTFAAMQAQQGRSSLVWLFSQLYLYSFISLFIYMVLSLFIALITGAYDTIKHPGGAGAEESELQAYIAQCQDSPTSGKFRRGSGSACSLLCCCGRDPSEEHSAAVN

q: Need EC50 of CCN(CC)c1cn(-c2cc(C#N)ccn2)c2ncnc(N3CCN(C(=O)OC(C)(C)C)CC3)c12 , thanks.
a: 100 to 500 nM

q: Also check C[C@H]1CN(C(=O)OC(C)(C)C)CCN1c1ncnc2c1c(N1CCC[C@@H]1CO)cn2-c1cc(F)cc(F)c1
a: 500 to 2000 nM

q: Also check C[C@H]1CN(C(=O)OC(C)(C)C)CCN1c1ncnc2c1c(N(C)C)cn2-c1cccc(Cl)c1
a: < 100 nM

q: Also check COc1cc(-n2cc(C3CC3)c3c(N4CCN(C(=O)OC(C)(C)C)C[C@@H]4C)ncnc32)cc(F)c1F
a: 100 to 500 nM

----------
Biological target: TRPML2 (Homo sapiens)
Construct: expressed in transfected cells
Sequence (Q8IZK6 1-566): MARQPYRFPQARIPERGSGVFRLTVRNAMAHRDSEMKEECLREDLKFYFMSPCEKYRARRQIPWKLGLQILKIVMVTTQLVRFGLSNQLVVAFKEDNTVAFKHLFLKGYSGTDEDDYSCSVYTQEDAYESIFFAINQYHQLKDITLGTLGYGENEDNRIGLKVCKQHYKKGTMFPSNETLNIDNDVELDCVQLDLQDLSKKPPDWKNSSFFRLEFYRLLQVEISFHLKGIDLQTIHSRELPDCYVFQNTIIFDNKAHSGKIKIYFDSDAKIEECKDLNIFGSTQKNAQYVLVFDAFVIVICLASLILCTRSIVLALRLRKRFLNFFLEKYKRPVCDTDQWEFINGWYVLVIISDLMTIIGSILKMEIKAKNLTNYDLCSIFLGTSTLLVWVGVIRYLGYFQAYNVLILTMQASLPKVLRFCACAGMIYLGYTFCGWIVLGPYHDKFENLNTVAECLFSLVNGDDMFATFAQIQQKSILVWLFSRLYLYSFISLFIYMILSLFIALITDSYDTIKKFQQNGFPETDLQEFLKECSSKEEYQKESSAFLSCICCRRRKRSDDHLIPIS
Experiment: Fluorescent TRPML2 assay (performed as for TRPML1, substituting the TRPML2 subtype)
Type: cell-based
Conditions: fluorescent calcium assay
pEC50: −log10 of the molar value.
Below, each entry is listed with its recorded pEC50.

[[record]]
compound = "C[C@H]1CN(C(=O)OC(C)(C)C(F)(F)F)CCN1c1ncnc2c1c(-c1cnn(C)c1)cn2-c1cc(C#N)ccn1 [Compound 330]"
recorded_measurement = "6.30 to 7.00"

[[record]]
compound = "C[C@H]1CN(C(=O)OC(C)(C)C)CCN1c1ncnc2c1c(C1CC1)cn2-c1cc(C#N)n(C)c1 [Compound 445]"
recorded_measurement = "6.30 to 7.00"

[[record]]
compound = "C[C@H]1CN(C(=O)OC(C)(C)C(F)(F)F)CCN1c1ncnc2c1c(C1CC1)cn2-c1cccc(C#N)c1 [Compound 266]"
recorded_measurement = "5.70 to 6.30"

[[record]]
compound = "COC(=O)c1nccnc1-c1cn(-c2cccc(Cl)c2)c2ncnc(N3CCN(C(=O)OC(C)(C)C)C[C@@H]3C)c12 [Compound 275]"
recorded_measurement = "< 5.70"

[[record]]
compound = "C[C@H]1CN(C(=O)OCC(F)(F)F)CCN1c1ncnc2c1c(-c1ccccc1)cn2-c1cc(C#N)ccn1 [Compound 371]"
recorded_measurement = "5.70 to 6.30"


Proceed to the following item.
q: Need pEC50 of C[C@@H]1CN(c2ncnc3c2c(-c2cccnc2)cn3-c2cc(F)cc(Cl)c2)CCN1C(=O)OC(C)(C)C [Compound 222] , thanks.
a: 5.70 to 6.30
